Hi there, I'd appreciate the recorded GI50 for every entry that follows.
tested on: UACC-257; test: NCI tumour cell line growth inhibition, 48 h
Active and inactive are the calls of the source. No stated cut-off is given here; in the data, active = GI50 up to about 1.1 µM and inactive = higher.

Previously resolved entries follow.
>>> df
                                   compound  quantity_measured             measured
0  O=C(O)C12C3C4(C(=O)O)C1C1(C(=O)O)C2C3(C(=O)O)C41 (configuration not stated)               GI50  > 100 µM (inactive)
1         CC1=N/C(=C\c2cccc3ccccc23)C(=O)O1               GI50  > 100 µM (inactive)
2  CC1=C/C(=N\O)C(C(O)(C(F)(F)F)C(F)(F)F)C(C)(C)C1 (configuration not stated)               GI50   > 10 µM (inactive)
3  Nc1ncnc2c1ncn2C1OC(C(=O)OCCO)C(O)C1O (configuration not stated)               GI50  > 100 µM (inactive)

Would you mind giving GI50 for every compound in the list below?
1. CCOC(=O)NC
2. C/C=C/C(=O)Oc1cccc2cccnc12
3. CCOC(=O)/C=C/C1(CCOC(C)=O)CCCCC1

> 100 µM (inactive)
4.62 µM (inactive)
> 10 µM (inactive)

* * *

system: PC-3; assay: NCI tumour cell line growth inhibition, 48 h
Activity calls are given as the source filed them. Rule as the data show it: active = GI50 up to about 1.1 µM and inactive = higher.
quantity_measured: GI50

Previously resolved entries follow.
molecule	GI50
N#Cc1c(NC(=S)NC(=O)c2ccccc2)nc2c(c1-c1ccccc1)CCC2	> 100 µM (inactive)
COc1cc([C@@H]2c3cc4c(cc3[C@@H](/N=C/c3ccc(C(=O)O[C@@H](C(=O)O[C@H]5C[C@@]6(O)[C@@H](OC(=O)c7ccccc7)[C@@H]7[C@]8(OC(C)=O)CO[C@@H]8C[C@H](O)[C@@]7(C)C(=O)[C@H](OC(C)=O)C(=C5C)C6(C)C)[C@@H](NC(=O)c5ccccc5)c5ccccc5)cc3)[C@H]3COC(=O)[C@H]23)OCO4)cc(OC)c1O	0.0138 µM (active)
Clc1cc2ccccc2c2ccccc12	50.2 µM (inactive)
CC1=C/C(=N\O)C(C(O)(C(F)(F)F)C(F)(F)F)C(C)(C)C1 (stereo not given)	> 10 µM (inactive)
O=C1/C(=C\c2ccc(Cl)cc2)N=C(c2ccccc2)N1n1c(=O)cn[nH]c1=S	39.7 µM (inactive)

Would you mind giving GI50 for every molecule in the list below?
1. CN1C(=O)C(=Cc2ccc(Br)cc2)C(=O)N(C)C1=O
2. CCCCCOC(=O)c1cc2cc(CCl)ccc2oc1=O
3. CN1C(=O)c2ccccc2OC12C=Cc1c(ccc3ccccc13)O2 (stereo not given)

1: > 100 µM (inactive); 2: 4.07 µM (inactive); 3: 3.27 µM (inactive)

* * *

test system: XF498; experiment: NCI tumour cell line growth inhibition, 48 h
Activity calls are given as the source filed them. No stated cut-off is given here; in the data, active = GI50 up to about 1.1 µM and inactive = higher.
Hi there, I'd appreciate the recorded GI50 for every entry that follows.

>>> print(df.to_string())
                         structure_notation             measured
0  Cc1c(C(=O)C/C(=N/NC(=O)CC#N)C(N)=O)[n+]([O-])c2ccccc2[n+]1[O-]  > 100 µM (inactive)
1  C[C@@H](N[C@H]1CCC[C@@H]1O)c1ccccc1.C[C@@H](N[C@H]1CCC[C@H]1O)c1ccccc1  > 100 µM (inactive)
2  CCCNC1=C(C)C(=O)C2=C(C1=O)[C@H](COC(N)=O)[C@]1(OC)[C@@H]3N[C@@H]3CN21   4.78 µM (inactive)
3                        Cc1ncc(CI)c(CI)c1O   20.1 µM (inactive)

Proceed to the following item.
Please state recorded GI50 (tested on XF498) of CN(C)C(=S)/N=c1\ss/c(=N\S(=O)(=O)c2ccccc2)n1C > 100 µM (inactive)

* * *

system: IGROV-1; test: NCI tumour cell line growth inhibition, 48 h
Calls of active or inactive are those of the source. Cut-off read from the data, not from the text of the source: active = GI50 up to about 1.1 µM and inactive = higher.
quantity_measured: GI50

Previously resolved entries follow.
                                   compound             measured
0     CCc1nnc(S)n1/N=C\c1ccc(-c2ccccc2Cl)o1   38.7 µM (inactive)
1  Nc1c(-c2nc3ccccc3[nH]2)sc(=S)n1-c1ccc(Cl)cc1   28.6 µM (inactive)
2  CCC(c1c[nH]c2ccc(Br)cc12)c1c[nH]c2ccc(Br)cc12   4.41 µM (inactive)
3               CN(C)c1nc2nonc2nc1Nc1ccccc1  > 100 µM (inactive)

Would you mind giving GI50 for every compound in the list below?
1. OCCc1cnco1
2. CCCCCOC(=O)c1cc2cc(CCl)ccc2oc1=O
3. N#CC(/N=N/c1ccccc1)c1nc2ccccc2o1 (configuration not stated)
4. O=C(O)CC[P+](c1ccccc1)(c1ccccc1)c1ccccc1

1. > 100 µM (inactive)
2. 10.3 µM (inactive)
3. 16.1 µM (inactive)
4. 15 µM (inactive)

Would you mind giving GI50 for every compound in the list below?
1. C[C@H](c1ccccc1)N1C(=O)[C@@H](O)[C@H]1[C@H](CO)OCc1ccccc1
2. COc1cccc(NC(=O)CC(=O)N2N=C(N(CCC#N)c3ccccc3C)CC2c2ccccc2)c1 (configuration not stated)
3. CCOC(=O)NC
4. CC(=O)Nc1cccc(/N=N/N(C)C)c1

1. > 100 µM (inactive)
2. > 100 µM (inactive)
3. > 100 µM (inactive)
4. > 100 µM (inactive)

* * *

system: SK-MEL-28; experiment: NCI tumour cell line growth inhibition, 48 h
Calls of active or inactive are those of the source. Cut-off read from the data, not from the text of the source: active = GI50 up to about 1.1 µM and inactive = higher.
I would appreciate it if you answered using one of these outcomes: active, inactive

molecule	assigned_label
OCCc1cnco1	inactive
CC1(C)C2CCC13CS(=O)(=O)N1O[C@]13C(=O)O2 (stereo not given in full)	inactive
Nc1nc(N)c2ncn(-c3ccccc3)c2n1	inactive
Oc1ccc([C@H]2c3c(O)cc(O)cc3C3c4c(cc(O)cc4[C@@H]2[C@H]2c4cc(O)cc5c4C(c4cc(O)cc(O)c4[C@@H]2c2ccc(O)cc2)[C@@H](c2ccc(O)cc2)O5)O[C@@H]3c2ccc(O)cc2)cc1 (stereo not given in full)	active
O=C1/C(=C2/CCCN2)C(c2ccc[nH]2)=NN1c1ccccc1	inactive

Outcome logged for Cc1cc(S(=O)(=O)Nc2nc3ccccc3nc2-c2ccc(Cl)cc2)c(S)cc1Cl in this assay: inactive

Outcome logged for CC(=O)Nc1cccc(/N=N/N(C)C)c1 in this assay: inactive

* * *

test system: BT-549; assay: NCI tumour cell line growth inhibition, 48 h
The source made the active and inactive calls. No stated cut-off is given here; in the data, active = GI50 up to about 1.1 µM and inactive = higher.
I would appreciate it if you answered using one of these outcomes: active, inactive

Example entries begin here.
In [3]: df
Out[3]:
                                   compound  assigned_label
0            O=C1C=C(O)C(=O)c2c(O)ccc(O)c21        inactive
1  CCCCCCCCCCCCNC(=O)CCC(NC(=O)c1ccc(N(C)Cc2cnc3nc(N)nc(N)c3n2)cc1)C(=O)NCCCCCCCCCCCC (configuration not stated)        inactive
2  CCC(C(=O)C(=O)C(CC)P1(=O)OC(C)(C)CN1C(C)(C)C)P1(=O)OC(C)(C)CN1C(C)(C)C (configuration not stated)        inactive
3  Cc1cc2c(cc1Cl)SC(NNC(=O)c1ccco1)=NS2(=O)=O        inactive
4     CCOP(=O)(C/C=C/Cn1ncc(=O)[nH]c1=O)OCC        inactive

Outcome logged for N#Cc1c(NC(=S)NC(=O)c2ccccc2)nc2c(c1-c1ccccc1)CCC2 in this assay: inactive

Outcome logged for CC(=O)NC(CC(C)C)C(=O)NC(CC(C)C)C(=O)NC(C=O)CCCNC(=N)N (configuration not stated) in this assay: inactive

Outcome logged for OCc1cc2c(ccc3sc4ccc5sc6ccc7ncccc7c6c5c4c32)s1 in this assay: inactive

Outcome logged for CC(N)(CC(O)(C(F)(F)Cl)C(F)(F)Cl)C(=O)O (configuration not stated) in this assay: inactive

Outcome logged for CSc1[nH]cnc1C(N)=S in this assay: inactive

Outcome logged for CN(C)CCSC1=Nc2ccc(Cl)cc2C(c2ccccc2Cl)=NC1 in this assay: inactive

* * *

tested on: NCI/ADR-RES; test: NCI tumour cell line growth inhibition, 48 h
Calls of active or inactive are those of the source. Cut-off read from the data, not from the text of the source: active = GI50 up to about 1.1 µM and inactive = higher.
quantity_measured: GI50

Would you mind giving GI50 for every molecule in the list below?
1. O=C(C(=O)n1ccc2ccccc21)c1c[nH]c2ccccc12
2. O=S(=O)(O)c1ccc2c(/N=N/c3ccccc3)c(O)c(S(=O)(=O)O)cc2c1
3. COc1cc(S(=O)(=O)Nc2ccc(-c3csc(N4C(=O)CSC4c4ccccc4)n3)cc2)ccc1Cl (centres undefined)

> 10 µM (inactive)
> 100 µM (inactive)
> 100 µM (inactive)

Please state recorded GI50 (tested on NCI/ADR-RES) of CC1OC2=N[C@@H]1C(=O)N[C@@H](C(C)C)C1=N[C@H](C(=O)N[C@@H](C(C)C)C3=N[C@H](C(=O)N[C@@H](C(C)C)C4=N[C@H](C(=O)N[C@H]2C(C)C)C(C)O4)C(C)O3)C(C)O1 (some centres undefined) > 10 µM (inactive)
